Let's look at some pIC50 data for PIK3CD (Human) that I collected from the literature.
pIC50: −log10 of the molar value.
Observed Property: pIC50

# Compound, Measured On, pIC50
data = [
    ("O=C(CN1CCCCCC1)N[C@H]1CC[C@H](Nc2cc(-n3c(C(F)F)nc4ccccc43)nc(N3CCOCC3)n2)CC1", "PIK3CD (Human)", 8.39),
    ("COc1cc(F)cc(-c2nn(C3CCc4ccccc43)c3ncnc(N)c23)c1 (stereo not shown)", "PIK3CD (Human)", 5.74),
    ("CCS(=O)(=O)Nc1cc(-c2nc(N3CCOCC3)nc3c(CN4CCN(C)CC4)csc23)cnc1OC", "PIK3CD (Human)", 7.64),
]

[1] Cc1nc(NC(=O)N2CC[C@@H](CN(C)C)[C@H]2C(N)=O)sc1-c1ccnc(C(C)(C)C(F)(F)F)c1
[2] COc1ncc(-c2nc(N3CCOCC3)nc3c(CN4CCC(C(C)C)CC4)c(C)sc23)cc1NS(C)(=O)=O
Prompt: Please indicate which has the smaller reported pIC50: 1 , or 2 . Give the chosen item's label as your response.
Response: 1
